assay.target: IDO1 (Homo sapiens)
Sequence (P14902 whole entry): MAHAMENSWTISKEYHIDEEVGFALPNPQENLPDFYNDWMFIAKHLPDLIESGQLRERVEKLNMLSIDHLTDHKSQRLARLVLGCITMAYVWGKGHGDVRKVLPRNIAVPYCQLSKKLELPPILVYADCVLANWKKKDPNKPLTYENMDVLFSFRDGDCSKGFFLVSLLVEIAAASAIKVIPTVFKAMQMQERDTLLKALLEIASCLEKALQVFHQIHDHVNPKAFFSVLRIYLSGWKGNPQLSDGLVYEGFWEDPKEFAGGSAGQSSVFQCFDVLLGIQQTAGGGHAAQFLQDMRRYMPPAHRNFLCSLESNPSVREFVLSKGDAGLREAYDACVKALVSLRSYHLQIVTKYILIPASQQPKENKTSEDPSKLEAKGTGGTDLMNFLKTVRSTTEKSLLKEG
procedure.text: IDO1 Human Whole blood Assay
Assay type: cell-based
Set-up: Human whole blood was drawn in sodium heparin coated tubes from healthy internal donors; from tissue; host or cells: human whole blood from healthy donors, stimulated with LPS and IFNγ
condition.notes: LPS and IFNγ stimulated, 18 h, read-out: Human Whole Blood Potency, IC50
Method: IDO1Human Whole blood Assay Compounds to be tested were serially diluted in ten 3-fold steps in DMSO starting from 10 mM. […] On day 2, isotope labeled standard solutions of kynurenine and tryptophan was made in water at 10× concentration and 30 μL was added to the blood at 3 μM final concentration. […] 20 μL of supernatant was carefully transferred to a 384 well plate containing 40 μL of 0.1% formic acid in water and analyzed by LC/MS/MS. […]
experimental.endpoint: pIC50
Scale: negative log10 of molar concentration, which is what pIC50 denotes.

INSERT INTO results (compound, numeric_result) VALUES
  ('Cc1cccc(N2CCN(C(=O)Cn3nc(C(=O)N4CCC(O)CC4)c4c3CC(C(F)F)C4)CC2)c1C (racemic) [Example 16]', 6.84);

Moving on to the next compound.
For the compound shown here, Cc1cccc(N2CCN(C(=O)Cn3nc(C(=O)N4CC[C@H](O)[C@H](F)C4)c4c3CC(C(F)F)C4)CC2)c1C (single isomer, unassigned) [Example 11] , give the reported pIC50.
6.01
